Taken from patent US6534504B1.

Test system: cattle
Test: Oral administration (gavage) to cattle: serum NEFA and SUN levels
Format: in vivo, cattle (Angus/Angus cross steer calves)
Conditions: 1 mg per kilogram body weight oral gavage, 24 hours post treatment, mean of five animals
// NB: equality with 10 µmol/L counts as 0; only ΔNEFA 24 Hours (increase in NEFA in blood compared with baseline T=0) strictly below is 1

Record CC(C)(Cc1ccc(Oc2ccc(S(C)(=O)=O)cc2)cc1)NC[C@H](O)COc1cccc2[nH]c(=O)[nH]c12 : is its ΔNEFA 24 Hours (increase in NEFA in blood compared with baseline T=0) strictly below 10 µmol/L?
1

Record CC(C)(Cc1ccc(Oc2ccc(C(=O)N3CCOCC3)cn2)cc1)NC[C@H](O)COc1cccc2[nH]c(=S)[nH]c12 : is its ΔNEFA 24 Hours (increase in NEFA in blood compared with baseline T=0) strictly below 10 µmol/L?
1

Record CC(C)(Cc1ccc(Oc2ccc(C(N)=O)cc2)cc1)NC[C@H](O)COc1cccc2[nH]c(=S)[nH]c12 : is its ΔNEFA 24 Hours (increase in NEFA in blood compared with baseline T=0) strictly below 10 µmol/L?
0

Record CC(C)(Cc1ccc(Oc2ncccc2C(N)=O)cc1)NC[C@H](O)COc1cccc2[nH]c(=S)[nH]c12 : is its ΔNEFA 24 Hours (increase in NEFA in blood compared with baseline T=0) strictly below 10 µmol/L?
0

Record CC(C)(Cc1ccc(Oc2ccc(C(=O)N3CCOCC3)cn2)cc1)NC[C@H](O)COc1cccc2[nH]ncc12 [Compound 4] : is its ΔNEFA 24 Hours (increase in NEFA in blood compared with baseline T=0) strictly below 10 µmol/L?
0

====

System: cattle
Experiment: Intravenous administration to cattle: serum NEFA and SUN levels
Format: in vivo, cattle (Angus/Angus cross calves)
Settings: 40 μg per kilogram intravenously, 15 minutes post treatment, mean of five animals
Field: ΔNEFA 15 Min. (increase in NEFA in blood compared with baseline T=0). Provide a value for each of the molecules that follow.

# CC(C)(Cc1ccc(Oc2ccc(S(C)(=O)=O)cc2)cc1)NC[C@H](O)COc1cccc2[nH]ncc12 with cattle: ΔNEFA 15 Min. (increase in NEFA in blood compared with baseline T=0) is 397.3 µmol/L

# CC(C)(Cc1ccc(Oc2ccc(C(=O)N3CCOCC3)cn2)cc1)NC[C@H](O)COc1cccc2[nH]ncc12 with cattle: ΔNEFA 15 Min. (increase in NEFA in blood compared with baseline T=0) is 194.8 µmol/L

# CC(C)(Cc1ccc(Oc2ccc(C(N)=O)cn2)cc1)NC[C@H](O)COc1cccc2[nH]ncc12 with cattle: ΔNEFA 15 Min. (increase in NEFA in blood compared with baseline T=0) is 554.4 µmol/L

# CC(C)(Cc1ccc(Oc2ccc(C#N)cn2)cc1)NC[C@H](O)COc1cccc2[nH]ncc12 with cattle: ΔNEFA 15 Min. (increase in NEFA in blood compared with baseline T=0) is 269.4 µmol/L

====

Field: ΔNEFA 24 Hours (increase in NEFA in blood compared with baseline T=0). Provide a value for each of the compounds that follow.
Test system: cattle
Experiment: Oral administration (gavage) to cattle: serum NEFA and SUN levels
Format: in vivo, cattle (Angus/Angus cross steer calves)
Details: 1 mg per kilogram body weight oral gavage, 24 hours post treatment, mean of five animals
Field: numeric (µmol/L). Do not append units.

The recorded ΔNEFA 24 Hours (increase in NEFA in blood compared with baseline T=0) for entry CC(C)(Cc1ccc(Oc2ccc(C#N)cn2)cc1)NC[C@H](O)COc1cccc2[nH]c(=O)[nH]c12 equals 18

The recorded ΔNEFA 24 Hours (increase in NEFA in blood compared with baseline T=0) for entry CC(C)(Cc1ccc(Oc2ccc(S(C)(=O)=O)cc2)cc1)NC[C@H](O)COc1cccc2[nH]c(=S)[nH]c12 equals 37

The recorded ΔNEFA 24 Hours (increase in NEFA in blood compared with baseline T=0) for entry CC(C)(Cc1ccc(Oc2ccc(C#N)cn2)cc1)NC[C@H](O)COc1cccc2[nH]ccc12 equals 63

The recorded ΔNEFA 24 Hours (increase in NEFA in blood compared with baseline T=0) for entry CC(C)(Cc1ccc(Oc2ncccc2C(N)=O)cc1)NC[C@H](O)COc1cccc2[nH]ccc12 equals -30

The recorded ΔNEFA 24 Hours (increase in NEFA in blood compared with baseline T=0) for entry CC(C)(Cc1ccc(Oc2ccc(C#N)cn2)cc1)NC[C@H](O)COc1cccc2[nH]ncc12 equals 349

The recorded ΔNEFA 24 Hours (increase in NEFA in blood compared with baseline T=0) for entry CC(C)(Cc1ccc(Oc2ccc(S(C)(=O)=O)cc2)cc1)NC[C@H](O)COc1cccc2[nH]ncc12 equals 1216

The recorded ΔNEFA 24 Hours (increase in NEFA in blood compared with baseline T=0) for entry CC(C)(Cc1ccc(Oc2ccc(C(=O)N3CCOCC3)cn2)cc1)NC[C@H](O)COc1cccc2[nH]ccc12 equals -47

The recorded ΔNEFA 24 Hours (increase in NEFA in blood compared with baseline T=0) for entry CC(C)(Cc1ccc(Oc2ccc(C(N)=O)cn2)cc1)NC[C@H](O)COc1cccc2[nH]ncc12 equals 329
